experimental-target: folate receptor beta (Homo sapiens (Human))
Sequence (P14207 17-255): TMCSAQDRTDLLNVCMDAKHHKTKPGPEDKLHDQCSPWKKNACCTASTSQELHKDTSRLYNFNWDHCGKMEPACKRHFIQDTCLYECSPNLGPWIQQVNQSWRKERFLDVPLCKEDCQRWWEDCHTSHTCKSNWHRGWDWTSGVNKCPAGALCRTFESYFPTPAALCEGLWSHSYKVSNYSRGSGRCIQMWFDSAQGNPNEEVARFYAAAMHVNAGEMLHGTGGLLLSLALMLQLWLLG
run-description: Folate receptor SPR assay (biotinylated folate receptor beta on streptavidin chip)
Type: binding
measurement-setup: biotinylated folate receptor beta on streptavidin chip
The reader will find reported Rmax values listed item by item below.
Response body: numeric value in RU, unit text excluded.

Solved cases below.
{"columns": ["smiles-entry", "numeric-readout"],
 "data": [
  ["Cc1nc2cc(F)c(-c3cnc(N4CCN(C(=O)COCCOCCN5CCC6(CC5)CCN(C(=O)CC[C@H](NC(=O)c5ccc(NCc7cnc8nc(N)nc(O)c8n7)cc5)C(=O)O)CC6)CC4)nc3)nc2c(N[C@H](C)c2cc(C#N)ccc2F)c1Cl", 19.7],
  ["Cc1nc2cc(F)c(-c3cnc(N4CCN(C(=O)COCCOCCOCCOCCOCCOCCn5cc(CC[C@H](NC(=O)c6ccc(N(C)Cc7cnc8nc(N)[nH]c(=O)c8n7)cc6)C(=O)O)nn5)CC4)nc3)nc2c(N[C@H](C)c2cc(C#N)ccc2F)c1Cl", 18.1],
  ["Cc1nc2cc(F)c(-c3cnc(N4CCN(C(=O)COCCn5cc(CCCN6CCC7(CC6)CCN(C(=O)CC[C@H](NC(=O)c6ccc(NCc8cnc9nc(N)nc(O)c9n8)cc6)C(=O)O)CC7)nn5)CC4)nc3)nc2c(N[C@H](C)c2cc(C#N)ccc2F)c1Cl", 13.3]
]}

Kindly consider the entry below.
Req: What value of Rmax has been recorded for this entry: `Cc1nc2cc(F)c(-c3cnc(N4CCN(C(=O)COCCn5cc(COCCOCCOCCN6CCN(C(=O)[C@H](CCC(=O)O)NC(=O)c7ccc(NCc8cnc9nc(N)nc(O)c9n8)cc7)CC6)nn5)CC4)nc3)nc2c(N[C@H](C)c2cc(C#N)ccc2F)c1Cl`
Resp: 17.1
